Recorded Emax for the following compounds
- SYSTEM_UNDER_TEST: SIRT1 (Homo sapiens)
- Construct: His-tag (N); made in house; host or cells: E. coli BL21(DE3), T7-promoter vector
- MEASUREMENT_DESCRIPTION: Mass spectrometry based assay for modulators of SIRT1 activity (deacetylation of p53-based acetylated peptide)
- Type: biochemical
- PROTOCOL_CONDITIONS: percent maximum fold activation of SIRT1

{"COMPOUND": "O=C(Nc1ccccn1)c1cccn2nc(-c3ccc(N4CCOCC4)cc3C(F)(F)F)nc12", "Emax": "> 200%"}
{"COMPOUND": "O=C(Nc1nccs1)c1cccn2nc(-c3ccc(OCC(O)CO)cc3C(F)F)nc12 (stereo in doubt)", "Emax": "< 200%"}
{"COMPOUND": "O=C(Nc1ncc(CN2CCCC2)s1)c1cccn2cc(-c3ccc(F)cc3C(F)(F)F)nc12", "Emax": "> 200%"}
{"COMPOUND": "O=C(Nc1nccs1)c1cccn2cc(-c3cccc(CN4CCOCC4)c3)nc12", "Emax": "> 200%"}
{"COMPOUND": "O=C(Nc1ccccn1)c1cccn2nc(-c3ccc(OCCN4CCOCC4)cc3C(F)F)nc12", "Emax": "> 200%"}

Field Emax (system: SIRT1 (Homo sapiens)) for entry "Cc1cnc(NC(=O)c2nccn3cc(-c4ccccc4OC(F)(F)F)nc23)s1" = > 200%

Field Emax (system: SIRT1 (Homo sapiens)) for entry "O=C(Nc1nccs1)c1cccn2nc(-c3ccccc3OC(F)F)nc12" = > 200%

Field Emax (system: SIRT1 (Homo sapiens)) for entry "O=C(Nc1nccs1)c1cccn2cc(-c3cccc(C(F)F)c3)nc12" = < 200%

* * *

- SYSTEM_UNDER_TEST: SIRT1 (Homo sapiens, UniProt Q96EB6)
- Construct: His-tag (N); made in house; host or cells: E. coli BL21(DE3), T7-promoter vector
- Sequence (Q96EB6 1-747): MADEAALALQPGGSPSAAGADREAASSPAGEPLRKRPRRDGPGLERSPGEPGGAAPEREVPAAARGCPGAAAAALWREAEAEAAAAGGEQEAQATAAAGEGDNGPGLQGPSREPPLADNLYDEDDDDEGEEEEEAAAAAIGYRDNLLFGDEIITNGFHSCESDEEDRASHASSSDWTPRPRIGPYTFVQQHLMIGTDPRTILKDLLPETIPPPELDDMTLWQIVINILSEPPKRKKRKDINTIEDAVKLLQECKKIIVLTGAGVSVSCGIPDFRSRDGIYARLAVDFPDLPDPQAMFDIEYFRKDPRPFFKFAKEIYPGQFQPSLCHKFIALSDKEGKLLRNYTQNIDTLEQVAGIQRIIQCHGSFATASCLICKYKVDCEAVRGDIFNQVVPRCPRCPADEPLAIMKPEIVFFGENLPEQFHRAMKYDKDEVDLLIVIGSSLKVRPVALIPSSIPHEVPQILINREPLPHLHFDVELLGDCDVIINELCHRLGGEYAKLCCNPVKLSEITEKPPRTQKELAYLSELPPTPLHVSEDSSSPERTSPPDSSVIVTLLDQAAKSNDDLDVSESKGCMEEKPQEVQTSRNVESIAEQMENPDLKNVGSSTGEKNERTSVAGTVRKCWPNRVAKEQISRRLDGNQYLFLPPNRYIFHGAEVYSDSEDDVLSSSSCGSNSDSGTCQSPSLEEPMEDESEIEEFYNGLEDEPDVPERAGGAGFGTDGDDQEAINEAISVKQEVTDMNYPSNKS
- MEASUREMENT_DESCRIPTION: Mass spectrometry based assay for modulators of SIRT1 activity (deacetylation of p53-based acetylated peptide)
- Type: biochemical
- PROTOCOL_CONDITIONS: concentration of test compound that results in 150% activation of SIRT1; 0.5 μM peptide substrate, 120 μM βNAD+, 10 nM SIRT1, 25 min, 25° C.
OBSERVABLE: EC1.5

{"TEST_SMILES": "O=C(Nc1nccs1)c1cccn2cc(-c3cccc(C(F)F)c3)nc12", "SYSTEM_UNDER_TEST": "SIRT1 (Homo sapiens, UniProt Q96EB6)", "OBSERVABLE": "EC1.5", "READING": "B (EC1.5 1-25 uM)"}
{"TEST_SMILES": "O=C(Nc1ccccn1)c1cccn2cc(-c3ccccc3C(F)(F)F)nc12", "SYSTEM_UNDER_TEST": "SIRT1 (Homo sapiens, UniProt Q96EB6)", "OBSERVABLE": "EC1.5", "READING": "B (EC1.5 1-25 uM)"}
{"TEST_SMILES": "O=C(Nc1cnccn1)c1nccn2cc(-c3ccccc3C(F)(F)F)nc12", "SYSTEM_UNDER_TEST": "SIRT1 (Homo sapiens, UniProt Q96EB6)", "OBSERVABLE": "EC1.5", "READING": "B (EC1.5 1-25 uM)"}
{"TEST_SMILES": "O=C(Nc1cccc(CN2CCOCC2)n1)c1cccn2nc(-c3cccc(C(F)(F)F)c3)nc12", "SYSTEM_UNDER_TEST": "SIRT1 (Homo sapiens, UniProt Q96EB6)", "OBSERVABLE": "EC1.5", "READING": "B (EC1.5 1-25 uM)"}
{"TEST_SMILES": "O=C(Nc1ccccn1)c1cccn2nc(-c3ccc(N4CCOCC4)cc3C(F)(F)F)nc12", "SYSTEM_UNDER_TEST": "SIRT1 (Homo sapiens, UniProt Q96EB6)", "OBSERVABLE": "EC1.5", "READING": "A (EC1.5<1.0 uM)"}
{"TEST_SMILES": "O=C(Nc1nc(CN2CCOCC2)cs1)c1cccn2cc(-c3cccc(OC(F)(F)F)c3)nc12", "SYSTEM_UNDER_TEST": "SIRT1 (Homo sapiens, UniProt Q96EB6)", "OBSERVABLE": "EC1.5", "READING": "A (EC1.5<1.0 uM)"}

Now for the molecule whose EC1.5 we want.
The molecule identified as "O=C(Nc1ncc(CN2CCCC2)s1)c1cccn2cc(-c3ccc(F)cc3C(F)(F)F)nc12" registered its EC1.5 at B (EC1.5 1-25 uM)

* * *

Recorded Emax for the following compounds
- SYSTEM_UNDER_TEST: SIRT1 (Homo sapiens, UniProt Q96EB6)
- Construct: His-tag (N); made in house; host or cells: E. coli BL21(DE3), T7-promoter vector
- Sequence (Q96EB6 1-747): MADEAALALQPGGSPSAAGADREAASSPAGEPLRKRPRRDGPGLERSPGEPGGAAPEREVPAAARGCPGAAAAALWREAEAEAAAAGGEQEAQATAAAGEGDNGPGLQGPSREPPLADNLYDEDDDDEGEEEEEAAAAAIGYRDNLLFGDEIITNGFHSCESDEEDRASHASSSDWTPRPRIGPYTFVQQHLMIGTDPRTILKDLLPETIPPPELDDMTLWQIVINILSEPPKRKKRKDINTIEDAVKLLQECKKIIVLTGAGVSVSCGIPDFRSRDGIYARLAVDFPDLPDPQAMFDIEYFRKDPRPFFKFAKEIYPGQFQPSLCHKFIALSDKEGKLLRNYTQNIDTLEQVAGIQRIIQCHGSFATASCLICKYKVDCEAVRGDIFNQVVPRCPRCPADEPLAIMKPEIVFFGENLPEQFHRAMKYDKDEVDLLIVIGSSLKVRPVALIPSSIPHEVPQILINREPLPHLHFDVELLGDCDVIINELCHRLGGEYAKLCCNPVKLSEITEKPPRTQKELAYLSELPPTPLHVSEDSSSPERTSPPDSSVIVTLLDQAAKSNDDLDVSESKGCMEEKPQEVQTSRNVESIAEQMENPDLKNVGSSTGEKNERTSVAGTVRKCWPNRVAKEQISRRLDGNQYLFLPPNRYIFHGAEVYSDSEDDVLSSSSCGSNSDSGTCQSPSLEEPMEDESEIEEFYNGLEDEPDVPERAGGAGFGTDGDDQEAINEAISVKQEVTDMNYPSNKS
- MEASUREMENT_DESCRIPTION: Mass spectrometry based assay for modulators of SIRT1 activity (deacetylation of p53-based acetylated peptide)
- Assay type: biochemical
- PROTOCOL_CONDITIONS: percent maximum fold activation of SIRT1

Use these answered entries as a reference point.
{"COMPOUND": "O=C(Nc1cccc(CN2CCOCC2)n1)c1cccn2cc(-c3cccc(Cl)c3)nc12", "Emax": "> 200%"}
{"COMPOUND": "O=C(Nc1cccc(OCC(O)CO)c1)c1cccn2cc(-c3cccc(C(F)(F)F)c3)nc12 (centres unmarked)", "Emax": "> 200%"}
{"COMPOUND": "O=C(Nc1cccc(CN2CCOCC2)n1)c1cccn2cc(-c3cc(F)c(F)c(F)c3)nc12", "Emax": "> 200%"}

The compound identified as "O=C(Nc1cccnn1)c1nccn2cc(-c3ccccc3C(F)(F)F)nc12" registered its Emax at > 200%

The compound identified as "Cc1ccc(-c2cn3ccnc(C(=O)Nc4nc(CN5CCOCC5)cs4)c3n2)cn1" registered its Emax at < 200%

The compound identified as "O=C(Nc1cccn2cc(-c3cccc(-c4ccccc4)c3)nc12)c1ccncc1" registered its Emax at < 200%

The compound identified as "O=C(Nc1nc(CN2CCOCC2)cs1)c1cccn2cc(-c3ccc(C(F)F)cc3)nc12" registered its Emax at > 200%

The compound identified as "O=C(Nc1cccn2cc(-c3cccc(OC(F)(F)F)c3)nc12)c1cnccn1" registered its Emax at < 200%
